TARGET UNDER TEST: T1, recombinant human ErbB3 protein (R&D systems) (human, UniProt P21860 20-643)
T1 construct: Bought recombinant protein; also called HER3
METHOD SUMMARY: BLI (Octet QK384), human ErbB3 immobilized on AR2G sensor, IgG at 12.5-50 nM
Some binders, each annotated with its measured koff.
Your answer should be a plain number; it is taken to be in s⁻¹.

BINDER	koff, s⁻¹
442M11 (antibody, V domains shown, IgG1 (Selexis 085 vector, CHO)) VH: EVQLLESGGGLVQPGGSLRLSCAASGFTFSDYDMSWVRQAPGKGLEWVSTIEPDYGSTLYADSVQGRFTISRDNSKNTLYLQMNSLRAEDTAVYYCAKDLHMGPEGPFDYWGQGTLVTVSS VL: QSVLTQPPSASGTPGQRVTISCSGSSSNIGSNSVSWYQQLPGTAPKLLIYSDNHRPSGVPDRFSGSKSGTSASLAISGLRSEDEADYYCHAWDSSLSGDFFGGGTKLTVLG	8.09e-06

Q: Using the record for 451M1 (antibody, V domains shown, IgG1 (Selexis 085 vector, CHO)) VH: EVQLLESGGGLVQPGGSLRLSCAASGFTFSDYDMSWVRQAPGKGLEWVSAIYYDSGSIYYADSAKGRFTISRDNSKNTLYLQMNSLRAEDTAVYYCAKDRLFMSDSTFDYWGQGTLVTVSS VL: QSVLTQPPSASGTPGQRVTISCSGSPSNIGNNSVTWYQQLPGTAPKLLIYYDSHRPSGVPDRFSGSKSGTSASLAISGLRSEDEADYYCGSWDASLNGYVFGGGTKLTVLG , report its koff.
Result: 3.08e-05
